Record form. Attribute: TGI. Fill in for each entry.
Test system: MDA-MB-231 breast
experimentSummary: NCI tumour cell line growth inhibition, 48 h

Item: Cc1cc(C)nc(NS(=O)(=O)c2ccc(NNc3c4ccccc4nc4c(C(=O)Nc5ccc(S(=O)(=O)Nc6cc(C)on6)cc5)cccc34)cc2)n1 | TGI: 94.4 µM

Item: O=C1c2ccccc2C2(c3ccc(F)cc3)NCCN12 (stereo unspecified) | TGI: > 100 µM

Item: Cc1cn(C2CC(COCc3ccccc3)N(CCO[Si](C)(C)C(C)(C)C)O2)c(=O)[nH]c1=O (stereo unspecified) | TGI: 33.2 µM

Item: O=C(O)CSC1=NNC2(C(=O)N1)c1ccccc1-c1ccccc12 | TGI: > 10 µM

Item: O=c1[nH]c2ccccc2c(O)c1/C=N/C(=S)NC1CCCCC1 | TGI: > 100 µM

Item: O=C1NC(=O)C(c2cccc(Cl)c2)=C1Nc1ccc(Cl)c(C(=O)O)c1 | TGI: > 25 µM

Item: CC1=C(CO)C(=O)O[C@@H]([C@@H](C)[C@H]2CC[C@H]3[C@@H]4C[C@H]5O[C@]56[C@@H](O)C=CC(=O)[C@]6(C)[C@H]4CC[C@]23C)C1 | TGI: 1.77 µM

Item: O=C1C=CC2(O[C@H](C3CCCCC3)[C@@H](C3CCCCC3)O2)C(SC(=O)c2ccccc2)C1 (stereo partly specified) | TGI: 5.11 µM

Item: CC(C)OP(=O)(OC(C)C)C(C(C)C)N(C)C(N)=NC#N (stereo unspecified) | TGI: > 100 µM

Item: CC(C)(C)OC(=O)C(C#N)C(=O)c1ccc(C(=O)O)[nH]1 (stereo unspecified) | TGI: > 100 µM

Item: c1ccc2c(Nc3ncco3)cccc2c1 | TGI: > 10 µM

Item: COC(=O)[C@@H](NS(=O)(=O)CC12CCC(CC1)C2(C)C)C(C)(C)C | TGI: > 100 µM

Item: COc1c(C)c(C/C=C(\C)CCCC(C)CCCC(C)CCCC(C)C)c(OC)c2ccccc12 (stereo unspecified) | TGI: > 100 µM

Item: COc1ccc(/C=C2\CCCc3ccccc3C2=O)cc1 | TGI: 42.1 µM

Item: c1cc2cc3c4c5c(cc6ccc7cc8cc9c%10c8c8c7c6c5c8c5c%10c(c1C9N1CCOCCOCCOCCOCCOCC1)c2c45)C3 (stereo unspecified) | TGI: > 100 µM

Item: O=c1cc(-c2ccccc2)oc2c1ccc1[nH]c3ccccc3c(=O)c12 | TGI: > 100 µM

Item: COc1cc(Cl)c(CC(=O)c2c[nH]c3ccccc23)cc1OC | TGI: > 52.6 µM

Item: Clc1ccc(-c2nn3c(COc4cccc(OCc5nnc6sc(-c7ccc(Cl)cc7)nn56)c4)nnc3s2)cc1 | TGI: > 100 µM

Item: O=C1NC(=O)C(=Cc2cn(Cc3ccccc3)c3ccccc23)C(=O)N1 | TGI: 43.9 µM

Item: S=C1C(=Nc2ccccc2)N(c2ccccc2)/C(=N\c2cccc[n+]2Cc2ccccc2)N1c1ccccc1 | TGI: 31.3 µM

Item: CC12CCC(=O)C(O1)C1C(=O)c3ccc4c(ccc5ccccc54)c3C(=O)C12 (stereo unspecified) | TGI: 6.64 µM

Item: OCCCCC#Cc1ccccc1C#Cc1cccnc1 | TGI: 69.7 µM

Item: C=C(Br)C[N+]12CN3CN(CN(C3)C1)C2 | TGI: > 100 µM

Item: Nc1ccc2c(=O)cc(-c3ccc(Br)s3)[nH]c2n1 | TGI: > 94.8 µM

Item: CCOC(=O)c1c(N2CCCC2)[nH]c(=O)c(C(c2ccc(N(C)C)cc2)c2c(O)c(C(=O)OCC)c(N3CCCC3)[nH]c2=O)c1O | TGI: > 100 µM

Item: CC(c1ccccc1)n1cncc1C(=O)NN1CCN(C)CC1 (stereo unspecified) | TGI: > 10 µM

Item: O=C1Nc2cccc(Cl)c2/C1=C\c1c(-c2ccccc2)nc2n1CCS2 | TGI: 49 µM

Item: CC12OC(C(=O)C13CC3)C1C(=O)c3c(O)ccc(O)c3C(=O)C12 (stereo unspecified) | TGI: 46.6 µM

Item: Cc1cc(S(=O)(=O)Nc2nc3cscc3c(=O)n2N)c(S)cc1Cl | TGI: > 100 µM

Item: Cn1c2ccc(Cl)cc2c2ccc3c(c21)C(=O)C=CC3=O | TGI: > 10 µM

Item: Oc1cccc2c(Br)ccnc12 | TGI: 16.3 µM

Item: O=C1C=CC(=O)c2c(O)c(N3CCOCC3)c(Cl)c(O)c21 | TGI: 0.612 µM

Item: COC(=O)CC1(O)C=CC(=O)C=C1 | TGI: 6.51 µM

Item: CCN1CCN(c2cc(C(=O)Nc3cccc(Nc4ccc5c(OC)cccc5n4)c3)cc(C(F)(F)F)c2)CC1 | TGI: 6.47 µM

Item: Cc1nc2ccc(Cl)cc2c2c1CCO2 | TGI: > 100 µM

Item: CC(C)(C)c1ccc(C2CC(=O)C3=C(C2)Nc2ccccc2N(C(=O)c2ccccc2Cl)C3c2ccc(F)cc2)cc1 (stereo unspecified) | TGI: > 100 µM

Item: Cc1ccc(N=C/C=C(\Nc2ccc(C)cc2)c2ccc3ccccc3c2)cc1 | TGI: 2.12 µM

Item: CC(C)=Cc1cc(CCC/C(C)=C/Cc2c(O)cc(C)c(C(=O)O)c2O)co1 | TGI: > 100 µM

Item: N#C/C(=C/N1CCN(C(=O)c2ccco2)C1=S)C(=O)Nc1ccc(Cl)cc1 | TGI: > 50 µM

Item: O=C1CS/C(=N/S(=O)(=O)c2ccc(N3N=C4c5ccccc5CC4C3c3cccs3)cc2)N1C(=O)c1ccccc1 (stereo unspecified) | TGI: > 100 µM

Item: C=C(C)[C@@H]1CCc2c(O)c(O)c(=O)cc(C)c2C1 | TGI: > 100 µM
